B1: EIF5 (parent)
chain: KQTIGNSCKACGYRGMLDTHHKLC

Variants of: B1
assay-details: protein stability index of a GFP-peptide fusion (GPS, HEK-293T) (PSI 1-6); higher = more stable;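 also: lentivirally expressed fusions sorted by FACS into six bins by GFP to DsRed ratio, PSI derived from sequencing read proportions per bin multiplied by bin number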
test-parameters: c terminus: a fixed tail appended
The label depends only on protein stability index: criterion met if it is at least 3, criterion not met if it is smaller.

See these solved cases before continuing.
variant-id: C24Q
assigned-category: criterion not met
//
variant-id: D18G
assigned-category: criterion not met
//
variant-id: M16N
assigned-category: criterion met
//
variant-id: L23R
assigned-category: criterion met
//
variant-id: C24R
assigned-category: criterion not met

Input: Check the entry `T19L` : does protein stability index equal or exceed 3?
Output: criterion not met

Input: Check the entry `M16V` : does protein stability index equal or exceed 3?
Output: criterion met

Input: Check the entry `H20Y` : does protein stability index equal or exceed 3?
Output: criterion not met

Input: Check the entry `L17P` : does protein stability index equal or exceed 3?
Output: criterion met
